meta.source: patent US10172832B2

# tested_on: FPRL-1 (Homo sapiens, UniProt P25090)
# Construct: expressed in transfected cells
# Sequence (P25090 whole entry): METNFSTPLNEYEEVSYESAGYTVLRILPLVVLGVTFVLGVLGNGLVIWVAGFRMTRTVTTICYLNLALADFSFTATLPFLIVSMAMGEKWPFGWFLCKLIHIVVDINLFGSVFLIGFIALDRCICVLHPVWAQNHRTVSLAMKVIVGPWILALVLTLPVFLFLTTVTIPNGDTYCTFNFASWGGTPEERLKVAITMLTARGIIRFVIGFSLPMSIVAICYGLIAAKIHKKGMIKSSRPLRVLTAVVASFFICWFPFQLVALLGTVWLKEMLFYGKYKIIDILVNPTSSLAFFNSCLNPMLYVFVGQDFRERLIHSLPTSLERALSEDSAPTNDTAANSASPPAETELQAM
# method_notes: compound-induced calcium activity on FLIPR Tetra in CHO-Gα16 cells stably expressing FPRL1
# Format: cell-based
# conditions_used: relative efficacy

- smiles_code: "CSc1ccc(NC(=O)N[C@@H](CC(C)C)C(=O)NCC(=O)O)cc1"
  FPRL-1 Ga16-CHO (Rel. eff.): "(1.05)"
- smiles_code: "CC(C)(C)OC(=O)CCNC(=O)[C@H](Cc1ccccc1)NC(=O)Nc1ccc(Br)cc1"
  FPRL-1 Ga16-CHO (Rel. eff.): "(1.00)"
- smiles_code: "CC(C)C[C@H](NC(=O)Nc1ccc(Br)cc1F)C(=O)N[C@@H](C)C(N)=O"
  FPRL-1 Ga16-CHO (Rel. eff.): "(1.05)"
- smiles_code: "CC(C)C[C@H](NC(=O)Nc1ccc(Br)cc1)C(=O)N[C@@H](C)C(=O)O"
  FPRL-1 Ga16-CHO (Rel. eff.): "(1.05)"
- smiles_code: "CC[C@H](C)[C@H](NC(=O)Nc1ccc(Br)cc1)C(=O)NCC(N)=O"
  FPRL-1 Ga16-CHO (Rel. eff.): "(0.81)"
- smiles_code: "CC[C@H](C)[C@H](NC(=O)Nc1ccc(Br)cc1F)C(=O)NCC(N)=O"
  FPRL-1 Ga16-CHO (Rel. eff.): "(1.00)"
- smiles_code: "CC(C)C[C@H](NC(=O)Nc1ccc(C(F)(F)F)cc1)C(=O)NCC(=O)OC(C)(C)C"
  FPRL-1 Ga16-CHO (Rel. eff.): "(0.81)"
